Reference source for all entries: patent US20020035061A1

Test system: inherently resistant microorganisms
PROTOCOL SUMMARY: microbe, parasite or virus in culture
Assay type: cell-based
CONDITION DESCRIPTION: peptide + Piperacillin; S. aureus MRSA
I'd appreciate it if you could supply FIC values for the items below.
One number for each entry.

Items follow; give FIC for each.
1. KKWWRRALQGLKTAGPAIQSVLNK [MBI 21A2]
2. ILRWPWWPWRRK [MBI 11B7CN]
3. ILKKWPWWPWRR [MBI 11G7CN]
4. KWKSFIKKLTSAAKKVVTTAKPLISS [MBI 26]
5. ILRWVWWVWRRK [MBI 11F4CN]

Result:
1: 0.25; 2: 0.50; 3: 0.25; 4: 0.13; 5: 0.53

Quick note, FIC for ILKKWPWWPWRRK [MBI 11E3CN] landed at 0.51
